- Target Or Test System: T1, human NK1 receptor (human, UniProt P25103 1-407)
- T1 construct: whole, on cells; Used as membrane preparations of transfected CHO cells; also called hNK1; human neurokinin-1 receptor
- T1 sequence (P25103 whole entry): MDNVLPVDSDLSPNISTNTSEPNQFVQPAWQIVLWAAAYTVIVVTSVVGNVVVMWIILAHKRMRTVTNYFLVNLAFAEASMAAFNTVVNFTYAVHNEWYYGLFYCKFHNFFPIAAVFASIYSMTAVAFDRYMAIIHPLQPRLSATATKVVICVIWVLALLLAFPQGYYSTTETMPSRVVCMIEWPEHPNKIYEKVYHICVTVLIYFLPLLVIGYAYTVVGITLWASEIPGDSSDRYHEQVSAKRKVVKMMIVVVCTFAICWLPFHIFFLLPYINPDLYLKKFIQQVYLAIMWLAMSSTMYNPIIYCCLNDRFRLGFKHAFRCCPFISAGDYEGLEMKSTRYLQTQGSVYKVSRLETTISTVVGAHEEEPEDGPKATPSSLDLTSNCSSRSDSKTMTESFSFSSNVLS
- Experimental Details: radioligand competition vs [3H]substance P, membranes of hNK1 CHO cells
Square brackets hold non-standard residues; d marks the D form. Ends that are not written are not given here. * marks the point of attachment. NHBn(CF3)2 = C-terminal amide NH-Bn(CF3)2, a benzyl group carrying two CF3; OBzl(3,5-(CF3)2) = FC(F)(F)c1cc(CO*)cc(C(F)(F)F)c1; NHBn = c1ccc(CN*)cc1
Measured Endpoint: pKi
Scale: negative log10 of molar concentration, which is what pKi denotes.

### Prompt Query pKi for Y[dA]GFFPLW-{NHBn(CF3)2} [TyrDAlaGlyPhePheProLeuTrpNHBn(CF3)2 (TY015)]
### Response 9.72

### Prompt Query pKi for Y[dA]GFPLW-NHBn [TyrDAlaGlyPheProLeuTrpNHBn (TY008)]
### Response 7.85

### Prompt Query pKi for YAGFXPLW (Dmt (2',6'-dimethyl-L-tyrosine) at 1; D-Ala at 2; Nle at 5 (X); C-terminal NH-3,5-Bn(CF3)2 amide) [DmtDAlaGlyPheNleProLeuTrpNHBn(CF3)2 (TY050)]
### Response 10.12

### Prompt Query pKi for Y[dA]GF[dF]PLW-{OBzl(3,5-(CF3)2)} [TyrDAlaGlyPheDPheProLeuTrpOBn(CF3)2 (TY007)]
### Response 8.89
